Each item that follows carries a reported IC50.
target: human recombinant Btk (Homo sapiens (Human), UniProt Q06187); experiment: Human Recombinant Btk Enzyme Assay; conditions: human recombinant Btk 1 nM, ATP 20 μM
Sequence (Q06187 whole entry): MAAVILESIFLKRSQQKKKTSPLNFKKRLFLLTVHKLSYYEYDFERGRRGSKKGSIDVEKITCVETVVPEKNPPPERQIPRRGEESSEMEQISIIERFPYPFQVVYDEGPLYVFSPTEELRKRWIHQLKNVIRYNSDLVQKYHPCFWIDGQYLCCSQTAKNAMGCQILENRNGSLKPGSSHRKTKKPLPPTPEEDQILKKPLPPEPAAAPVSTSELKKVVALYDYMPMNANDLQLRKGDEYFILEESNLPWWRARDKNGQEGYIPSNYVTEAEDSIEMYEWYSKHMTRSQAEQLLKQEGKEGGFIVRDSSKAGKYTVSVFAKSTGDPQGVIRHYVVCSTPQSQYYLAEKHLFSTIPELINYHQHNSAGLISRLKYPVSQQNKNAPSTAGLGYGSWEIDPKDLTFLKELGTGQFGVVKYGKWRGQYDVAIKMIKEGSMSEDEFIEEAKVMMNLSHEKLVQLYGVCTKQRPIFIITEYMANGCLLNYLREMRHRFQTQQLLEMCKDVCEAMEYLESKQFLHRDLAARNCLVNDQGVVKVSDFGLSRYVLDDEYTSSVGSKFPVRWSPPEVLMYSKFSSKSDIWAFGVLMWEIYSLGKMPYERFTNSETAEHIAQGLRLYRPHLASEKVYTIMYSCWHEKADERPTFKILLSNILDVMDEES

Examples with answers:
compound=COc1ccc2cc(=O)n(-c3cccc(-c4ccc(C(N)=O)c5[nH]c6cc(C(C)(C)O)ccc6c45)c3C)c(=O)n2c1 measurement_type=IC50 reported_result="1.4 nM"
compound=Cc1c(-c2ccc(C(N)=O)c3[nH]c4cc(C(C)(C)O)ccc4c23)cccc1-n1c(=O)cc2sccn2c1=O measurement_type=IC50 reported_result="1.6 nM"
compound="Cc1c(-c2ccc(C(N)=O)c3[nH]c4cc(C(C)(C)O)ccc4c23)cccc1-n1c(=O)cc2c(F)cccn2c1=O [Example 23]" measurement_type=IC50 reported_result="1.2 nM"
compound=Cc1c(-c2ccc(C(N)=O)c3[nH]c4c(F)c(C(C)(C)O)ccc4c23)cccc1-n1c(=O)c2cccc(F)c2n(C)c1=O measurement_type=IC50 reported_result="0.4 nM"
compound=COCc1ccc2c(c1)[nH]c1c(C(N)=O)ccc(-c3cccc(-n4c(=O)cc5c(Cl)cccn5c4=O)c3C)c12 measurement_type=IC50 reported_result="1.7 nM"

Incoming: Requested field: IC50. Item: "COCc1ccc2c(c1)[nH]c1c(C(N)=O)ccc(-c3cccc(-n4c(=O)cc5c(F)cccn5c4=O)c3C)c12"
Outgoing: 2.3 nM

Incoming: Requested field: IC50. Item: "Cc1c(-c2ccc(C(N)=O)c3[nH]c4cc(C(C)(C)O)ccc4c23)cccc1-n1c(=O)ccn(-c2ccc(F)cc2)c1=O"
Outgoing: 2.2 nM

Incoming: Requested field: IC50. Item: "Cc1c(-c2ccc(C(N)=O)c3[nH]c4cc(C(C)(C)O)ccc4c23)cccc1-n1c(=O)c2cc(F)ccc2n(C)c1=O"
Outgoing: 5.8 nM
